Molecular target: Sentrin-specific protease 7 (Homo sapiens)
Test: SENP7 protease inhibitors, retest, confirmation, biochemical, luminescence, single concentration (AID 488917)
Details: recombinant SENP7, Z-RLRGG-aminoluciferin luminescence, 40 min; at 12.5 µM; stronger effect = higher value
The other results are listed elsewhere or left out.
Use 1 (yes) when the recorded inhibition is no lower than 90%; use 0 (no) when it is lower.

Kindly determine if inhibition recorded for Cc1ccccc1Nc1nc(-c2cccnc2)cs1 is above or exactly 90%.
0 (no)

Would you mind doing CSC1=N/C(=C\C=C\c2cccs2)C(=O)S1 as well?
0 (no)

Would you mind doing Cc1cc(NC(=O)c2ccc(F)cc2)ccc1NC(=O)c1ccco1 as well?
1 (yes)

Would you mind doing CCn1nccc1C(=O)Nc1ccc(Cl)c(Cl)c1 as well?
0 (no)

Would you mind doing CCOc1ccc2nc(C(=O)N3CCCC(C)C3)sc2c1 (stereo not drawn) as well?
0 (no)

Would you mind doing O=C(Nc1ccc(F)cc1)c1cc2c(s1)CCCC2 as well?
1 (yes)

Would you mind doing CCOc1ccc(N/C=C/C(=O)c2ccccc2)cc1 as well?
0 (no)

Would you mind doing Cc1cccc(NC(=O)c2ccc3ccccc3n2)n1 as well?
1 (yes)

Would you mind doing COc1cccc(OCC(O)CNC(=O)c2oc3c(C)c(C)ccc3c2C)c1 (stereo not drawn) as well?
0 (no)

Would you mind doing O=C(c1cnn(-c2ccc(Cl)cc2)c1)c1ccccc1O as well?
0 (no)

Would you mind doing CC(C)CCNC(=O)c1ccc2c(Cl)c3c(nc2c1)CCC3 as well?
1 (yes)

Would you mind doing COc1ccc(Nc2nc(-c3ccccc3)cs2)cc1 as well?
1 (yes)

Would you mind doing c1ccc(CN=C2Nc3ccccc3CS2)nc1 as well?
0 (no)

Would you mind doing O=C(Nc1nnc(C2CC2)s1)c1ccccn1 as well?
0 (no)

Entry source: PubChem BioAssay
